Listed below: T/C values for each entry.
- System: P388 leukemia ip, CD2F1 mice, survival T/C
- protocol details: NCI In Vivo Anticancer Drug Screen. Data for tumor model P388 Leukemia (intraperitoneal) in CD2F1 (CDF1) mice
- test parameters: endpoint: median survival time; dose: 100.0 mg/kg/injection; schedule: Q01DX009 (ip); vehicle: saline with Tween-80; higher = longer survival
Toxic doses and inconclusive results are not listed.

# compound, T/C
measured = [
    ("CO[C@H]1/C=C/O[C@@]2(C)Oc3c(C)c(O)c4c(O)c(c(/C=N/N5CCNCC5)c(O)c4c3C2=O)NC(=O)/C(C)=C\\C=C\\[C@H](C)[C@H](O)[C@@H](C)[C@@H](O)[C@@H](C)C(OC(C)=O)[C@@H]1C (stereo partly drawn)", "95 % of control"),
    ("CC1(C)CC(OP(=O)(OCCN2CC2)OCCN2CC2)CC(C)(C)N1O", "100 % of control"),
    ("CCOC(=O)C(C)(C)Oc1cccc2c1S(=O)(=O)c1ccccc1-2", "93 % of control"),
    ("CC(=O)OCCN1c2ccccc2Sc2cnccc21", "100 % of control"),
    ("O=C(c1ccc(-c2ccccc2)cc1)C1(Br)CCCCC1", "100 % of control"),
    ("C/C(=N\\Nc1ccc([N+](=O)[O-])cc1[N+](=O)[O-])C1CC1", "108 % of control"),
    ("Cc1oc(NC(=O)C(=O)O)c(C#N)c1C", "102 % of control"),
    ("C#CCOC(=O)C1CCCCC1", "110 % of control"),
    ("CCOC(=O)C(Cc1ccc(O)cc1)Nc1nc2ccccc2o1 (stereo not drawn)", "105 % of control"),
    ("O=C1NC(=O)C(CCC[n+]2ccccc2)(c2ccccc2)C(=O)N1", "107 % of control"),
    ("CCCCN(C(=O)C(C)C)c1nc(C)co1", "118 % of control"),
    ("CCOC(=O)c1ccc(NC(=O)CS)cc1", "102 % of control"),
    ("Cc1ccc(Nc2cccc3c2C(=O)c2cccc(Nc4ccc(C)cc4S(=O)(=O)O)c2C3=O)c(S(=O)(=O)O)c1", "100 % of control"),
    ("Nc1ccccc1N", "120 % of control"),
    ("O=C1c2ccccc2C(O)(C#Cc2ccccc2)c2c1oc1c2ccc2ccccc21 (stereo not drawn)", "108 % of control"),
    ("O=[N+]([O-])c1ccc2nc(CC(O)(C(F)(F)F)C(F)(F)F)ccc2c1", "115 % of control"),
    ("CC(S)c1ccccc1 (stereo not drawn)", "113 % of control"),
    ("O=C(NC(=NC(=NC1CCCCC1)c1ccccc1)c1ccccc1)c1ccccc1", "92 % of control"),
    ("CCOC(=O)N1CCc2nc3ccc(Cl)cc3cc21", "99 % of control"),
    ("CCOC(=O)C(CCl)C(C(=O)OCC)C(=O)OCC (stereo not drawn)", "112 % of control"),
    ("CCOC(=O)C(Cc1ccc(O)cc1)NCc1ccc(N(CCCl)CCCl)cc1 (stereo not drawn)", "160 % of control"),
    ("CCCCCCCCCCCCCCCC1C(N)C(=O)N(C)N1C (stereo not drawn)", "95 % of control"),
    ("Cc1cc(C)cc(OC(=O)/C=C/C(=O)Oc2cc(C)cc(C)c2)c1", "90 % of control"),
    ("N#Cc1ccccc1Cl", "101 % of control"),
    ("CCC(=O)OC1CC2(C)C(=CC1=O)CCC1C2CCC2(C)C(OC(=O)CC)CCC12 (stereo not drawn)", "95 % of control"),
    ("CC12C=C(C(=O)c3ccccc3)C(CC1)C2(C)C (stereo not drawn)", "100 % of control"),
    ("CCOC(=O)C(=Cc1c[nH]c2ccc(Br)cc12)C(=O)OCC", "104 % of control"),
    ("O=S(=O)(F)c1ccc2nc(-c3cccc(Sc4ccccc4)c3)cc(Cl)c2c1", "100 % of control"),
    ("CCN(CC)c1ccc(/C=C2/C=Cc3ccccc32)cc1", "105 % of control"),
    ("CN(C)c1nc(N)nc(Nc2ccc(Br)cc2)c1N=O", "100 % of control"),
    ("c1ccc(N=C2c3ccccc3NC2(c2ccccc2)c2ccccc2)cc1", "93 % of control"),
    ("CCCCCCCOCC(=O)OC", "108 % of control"),
    ("N#Cc1c(NC(=O)Nc2ccc(F)cc2F)sc(=S)c2c1CCCC2", "99 % of control"),
    ("COc1ccc(Cc2noc(=O)[nH]2)cc1", "104 % of control"),
    ("Cc1cccc(OCC(O)CNC(C)(C)C)c1C (stereo not drawn)", "99 % of control"),
    ("O=C(CSc1ncnc2nc[nH]c12)c1ccccc1", "100 % of control"),
    ("CC(=O)OCC1OC(n2ncc(=S)[nH]c2=O)C2OC(C)(C)OC12 (stereo not drawn)", "95 % of control"),
    ("CC1CN(C)CCN1C (stereo not drawn)", "100 % of control"),
    ("CCC1(CN(C)C)C(=O)N(C)C(=O)N(C2CCCCC2)C1=O (stereo not drawn)", "102 % of control"),
    ("CC(C)(c1ccccc1)c1cc(CN2CCCCC2)c(O)c(CN2CCCCC2)c1", "97 % of control"),
    ("CCc1cc(CC)c(-c2ccco2)c(COC(=O)NC)c1", "101 % of control"),
    ("CC1CC(=O)C2(C)C1CC1CCC2(C)OC1(C)C (stereo not drawn)", "100 % of control"),
    ("O=C(/C=C/c1cccc([N+](=O)[O-])c1)c1ccccc1", "92 % of control"),
    ("CC1CC(C)(C)N=C(CCC2CCCC2=O)O1 (stereo not drawn)", "91 % of control"),
    ("CN(C)c1ccc(C=Nc2ccc(OCCCCCCCCCCC(=O)O)cc2)cc1", "88 % of control"),
    ("CCCCCCCCCCCCCCCCC/C=C1\\CC(=O)OC1=O", "89 % of control"),
    ("COCCOC(=O)CCCCC(=O)OCCOC", "100 % of control"),
    ("N#CSCc1ccc(Cl)cc1Cl", "113 % of control"),
]
